Would you kindly list ε (molar absorption coefficient) for each of these compounds?
Assay: Absorption spectrum of the compound in chloroform solution (spectral characteristics)
Type: physicochemical
Details: 5×10^−6 mol/L, 1 cm cell, at λmax

Per the record, CCN(CC)c1ccc(C2=C([O-])/C(=C3\C=CC(=[N+](CC)CC)C=C3NC(C)=O)C2=O)c(NC(C)=O)c1 [R-3] has ε (molar absorption coefficient) of 356,000 L/(mol · cm)

Per the record, C=C(C)C(=O)OCCOC(=O)C1=C(C)/C(=C2\C(=O)C(c3[nH]c(C)c(CC)c3C)=C2O)N=C1C [Exemplary compound 1-13] has ε (molar absorption coefficient) of 185,000 L/(mol · cm)

Per the record, C=C(C)C(=O)OCCN(CCOC(=O)C(=C)C)c1ccc(C2=C([O-])/C(=C3\C=CC(=[N+](CCOC(=O)C(=C)C)CCOC(=O)C(=C)C)C=C3NC(C)=O)C2=O)c(NC(C)=O)c1 [R-2] has ε (molar absorption coefficient) of 363,000 L/(mol · cm)

Per the record, CCC1=C(C)/C(=C2\C(=O)C(c3[nH]c(C)c(CC)c3C)=C2O)N=C1C [R-1] has ε (molar absorption coefficient) of 238,000 L/(mol · cm)

Per the record, C=Cc1ccc(Cn2c(C)c(CC)c(C)c2C2=C([O-])/C(=C3/C(C)=C(CC)C(C)=[N+]3Cc3ccc(C=C)cc3)C2=O)cc1 [Exemplary compound 1-30] has ε (molar absorption coefficient) of 158,000 L/(mol · cm)

# credit: patent US20250019368A1
